The measured values listed here are drawn from ChEMBL document CHEMBL2062484.

target: Matrix metalloproteinase-9 (Homo sapiens); assay: Inhibition of p-aminophenylmercuric acetate stimulated human recombinant MMP-9 using (7-methoxycoumarin-4-yl)-acetyl-pro-Leu-Gly-Leu-(3-(2,4-dinitrophenyl)-L-2,3-diaminopropionyl)-Ala-Arg-NH2 as substrate after 45 mins by fluorogenic assay
// NB: equality with 30 nM counts as -1; only IC50 strictly below is 1

Challenge: Quick check: IC50 of O=C1NC(=O)C(c2ccc(Oc3ccccc3)cc2)(N2CCCC(CO[N+](=O)[O-])C2)C(=O)N1 (stereo not given) under 30 nM?
Response given: -1

Challenge: Quick check: IC50 of `O=C1NC(=O)C(c2ccc(Oc3ccccc3)cc2)(N2CCC(CCO)CC2)C(=O)N1` under 30 nM?
Response given: 1

Challenge: Quick check: IC50 of `O=C1NC(=O)C(c2ccc(Oc3ccccc3)cc2)(N(CCO)CCO)C(=O)N1` under 30 nM?
Response given: 1

Challenge: Quick check: IC50 of O=C1NC(=O)C(c2ccc(Oc3ccccc3)cc2)(N2CCCC(CO)C2)C(=O)N1 (stereo not given) under 30 nM?
Response given: 1

Challenge: Quick check: IC50 of `O=C1NC(=O)C(c2ccc(Oc3ccccc3)cc2)(N(CCO[N+](=O)[O-])CCO[N+](=O)[O-])C(=O)N1` under 30 nM?
Response given: -1
